# Tested System: Sodium-dependent serotonin transporter (Rattus norvegicus, UniProt P31652)
# Sequence (P31652 whole entry): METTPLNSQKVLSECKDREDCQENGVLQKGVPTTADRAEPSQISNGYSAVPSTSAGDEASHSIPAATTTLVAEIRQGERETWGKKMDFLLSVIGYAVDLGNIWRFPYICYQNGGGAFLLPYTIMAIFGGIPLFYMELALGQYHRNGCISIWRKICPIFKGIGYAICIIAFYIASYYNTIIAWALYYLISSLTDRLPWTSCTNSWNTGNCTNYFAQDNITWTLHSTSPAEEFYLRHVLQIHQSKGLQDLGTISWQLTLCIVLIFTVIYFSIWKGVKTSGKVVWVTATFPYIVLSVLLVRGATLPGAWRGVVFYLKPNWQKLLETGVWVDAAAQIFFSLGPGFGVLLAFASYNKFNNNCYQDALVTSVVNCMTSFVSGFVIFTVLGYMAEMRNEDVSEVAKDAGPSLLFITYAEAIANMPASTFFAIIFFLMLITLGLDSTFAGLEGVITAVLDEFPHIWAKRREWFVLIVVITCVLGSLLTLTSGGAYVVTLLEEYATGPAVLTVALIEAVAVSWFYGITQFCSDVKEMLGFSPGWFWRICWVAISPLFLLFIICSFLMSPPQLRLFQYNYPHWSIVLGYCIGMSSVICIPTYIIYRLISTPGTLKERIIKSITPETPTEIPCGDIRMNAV
# Method Description: Inhibition of [3H]5HT reuptake at serotonin transporter in rat brain synaptosomes
# Assay type: subcellular
IC50 values for the molecules below.

Examples with their reported IC50 follow.
Molecule	Endpoint Label	Result
CC(C)=CCC[C@]1(C)[C@@H](CC=C(C)C)C[C@@]2(CC=C(C)C)C(=O)[C@]1(C(=O)C(C)C)C(=O)C1=C2OC(C)(C)C=C1 [DEHYDROHYPERFORIN]	IC50	> 18.7 µM
CC(C)=CCC[C@]1(C)[C@@H](CC=C(C)C)C[C@]23C[C@@H](C(C)(C)O)OC2=C(CC=C(C)C)C(=O)[C@]1(C(=O)C(C)C)C3=O	IC50	> 18.1 µM
C=C(C)[C@@H]1C[C@@]23C[C@H](CC=C(C)C)[C@@](C)(CCC=C(C)C)[C@](C(=O)C(C)C)(C(=O)C(CC=C(C)C)=C2O1)C3=O [DEHYDROFUROHYPERFORIN]	IC50	> 18.7 µM

Lookup result for CC(C)=C/C=C1\C(=O)[C@@]2(CC=C(C)C)C[C@H](CC=C(C)C)[C@@](C)(CCC=C(C)C)[C@](C(=O)C(C)C)(C1=O)C2=O ; measured IC50: > 18.7 µM

Looking up CC(C)=CCC[C@]1(C)[C@@H](CC=C(C)C)C[C@]2(CC=C(C)C)C(=O)[C@@](O)(CC=C(C)C)C(=O)[C@@]1(C(=O)C(C)C)C2=O , I see its IC50 listed as > 18.1 µM

Item: CC(C)=CCC[C@]1(C)[C@@H](CC=C(C)C)C[C@]2(CC=C(C)C)C(=O)[C@]3(CC=C(C)C)O[C@@]2(O)[C@@]1(C(=O)C(C)C)C3=O | IC50: > 18.1 µM

====

# Tested System: Sodium-dependent serotonin transporter (Rattus norvegicus)
# Method Description: Inhibition of [3H]5HT reuptake at serotonin transporter in rat brain synaptosomes
pIC50: −log10 of the molar value.
Endpoint Label: pIC50

Below, 5 compounds whose answers are already recorded.
Compound	pIC50
CC(=O)OC1=C(CC=C(C)C)C(=O)[C@]2(C(=O)C(C)C)C(=O)[C@]1(CC=C(C)C)C[C@H](CC=C(C)C)[C@@]2(C)CCC=C(C)C [HYPERFORIN ACETATE]	< 4.76
CC(C)=CCC[C@]1(C)[C@@H](CC=C(C)C)C[C@@]2(CC=C(C)C)C(=O)[C@@]1(C(=O)C(C)C)C(=O)C(CC=C(C)C)=C2OC(=O)c1cc([N+](=O)[O-])cc([N+](=O)[O-])c1	< 4.86
COC1=C(CC=C(C)C)C(=O)[C@]2(C(=O)C(C)C)C(=O)[C@]1(CC=C(C)C)C[C@H](CC=C(C)C)[C@@]2(C)CCC=C(C)C	< 4.74
COc1cc(C(=O)OC2=C(CC=C(C)C)C(=O)[C@@]3(C(=O)C(C)C)C(=O)[C@]2(CC=C(C)C)C[C@H](CC=C(C)C)[C@@]3(C)CCC=C(C)C)cc(OC)c1OC [HYPERFORINTRIMETHOXYBENZOATE]	< 4.86
CC(C)=CCC[C@]1(C)[C@@H](CC=C(C)C)C[C@]2(CC=C(C)C)C(=O)[C@](C)(CC=C(C)C)C(=O)[C@]1(C(=O)C(C)C)C2=O [C-Methylhyperforin]	< 4.74

# next compound below
Entry CC(C)=CCC[C@]1(C)[C@@H](CC=C(C)C)C[C@]2(CC=C(C)C)C(=O)C(CC=C(C)C)=C(O)[C@@]1(C(=O)C(C)C)C2=O , Sodium-dependent serotonin transporter (Rattus norvegicus) data, pIC50 value: 5.69
